Data provenance is PubChem BioAssay (NCI).

Test system: RPMI-8226 leukemia
Experiment: NCI-60 one-dose screen, 48 h (100 = growth as untreated, 0 = no growth, -100 = all killed)
Details: 10 µM unless noted
This is part of a sample that, as a whole, favours compounds with a hit. Of some 83,000 tested, about 20% had one in any assay.
Kindly state growth for each of the entries shown.
Numbers only, in %.

Example molecules with recorded growth:
INSERT INTO measurements (molecule, target_of_assay, measurement_kind, endpoint_value) VALUES
  ('COc1ccc(C[n+]2c3ccccc3n3c4ccc(N)cc4ccc32)c(OC)c1OC', 'RPMI-8226 leukemia', 'growth', 15.1),
  ('Cc1cn(-c2cc(NC(=O)c3cncc(C#Cc4c(N)ncc5ccc(F)cc45)c3)cc(C(F)(F)F)c2)cn1', 'RPMI-8226 leukemia', 'growth', 55.1);

*Q* Would you kindly share the measured growth for CCN1C(=O)N(CC)C2Nn3c(s/c(=C\c4ccccc4Br)c3=O)=NC21 (stereo not drawn) ?
*A* 35.4

* * *

Test system: PC-3 prostate
Assay: NCI-60 one-dose screen, 48 h
Conditions: 10 µM unless noted
This is part of a sample that, as a whole, favours compounds with a hit. Of some 83,000 tested, about 20% had one in any assay. Active and inactive are the calls of the source. Rule for the calls: active = growth percent below 10; inactive = the rest.
Hi there, use one of these labels in your reply, thanks! active, inactive

*Q* Record lookup: outcome of this test for CCN(CC)CCCOc1ccc2ncnc(Nc3ccc(Oc4cccc(C(F)(F)F)c4)c(Cl)c3)c2c1 ?
*A* active

*Q* Record lookup: outcome of this test for C#CCn1cnc2cnc(Nc3cccc(NC(=O)C=C)c3)nc21 ?
*A* active

* * *

System: MDA-MB-231 breast
Test: NCI-60 one-dose screen, 48 h
Details: 10 µM unless noted
The panel holds about 83,000 compounds, 20% with a hit somewhere; the sample as a whole holds those more often. Activity calls are given as the source filed them. The calls were made as follows: active = growth percent below 10; inactive = the rest.
Hi there, use one of these labels in your reply, thanks! active, inactive

INSERT INTO measurements (compound, target_of_assay, class_assignment) VALUES
  ('[2H]C([2H])([2H])Oc1ccc(F)cc1/C=C/C(=O)/C=C(O)/C=C/c1cc(F)ccc1OC([2H])([2H])[2H]', 'MDA-MB-231 breast', 'inactive'),
  ('NC(N)=NS(=O)(=O)c1ccc(NC2=C(I)C(=O)c3ncccc3C2=O)cc1', 'MDA-MB-231 breast', 'inactive'),
  ('N#Cc1c(Nc2ccc(N3CCOCC3)cc2)nc(SCC(=O)c2ccc(Br)cc2)nc1-c1ccccc1', 'MDA-MB-231 breast', 'inactive'),
  ('C=C1C(=O)O[C@H]2[C@H]1CC/C(COC(=O)c1ccc(C(=O)O)s1)=C\CC[C@@]1(C)O[C@@H]21', 'MDA-MB-231 breast', 'active');

*Q* Record lookup: outcome of this test for CC[N+]1(CC)CC[N+]2(CCCC(C)CC2)CC1 (stereo not given) ?
*A* inactive

*Q* Record lookup: outcome of this test for Cn1c(=O)c2[nH]c(SCC(=O)Nc3ccc(C(=O)/C=C/c4ccccc4Cl)cc3)nc2n(C)c1=O ?
*A* inactive

*Q* Record lookup: outcome of this test for N#Cc1cccc(C2C3=C(COC3=O)N(CCO)c3cc4c(cc32)CCC4)c1 (stereo not given) ?
*A* inactive

*Q* Record lookup: outcome of this test for O=C(CSc1nc(-c2ccccc2)cc(=O)[nH]1)Nc1nc(-c2ccccc2)cs1 ?
*A* inactive

*Q* Record lookup: outcome of this test for CCOc1ccc(-n2nc(C(=O)NCc3ccccc3OC)nc2-c2cc(OC)c(OC)c(OC)c2)cc1 ?
*A* inactive

*Q* Record lookup: outcome of this test for O=C(Nc1ccccc1O)c1ccc(CNC(=O)c2ccsc2Nc2ccnc(C(F)(F)F)c2)cc1 ?
*A* inactive

*Q* Record lookup: outcome of this test for CC(C)=CCNc1ncnc2c1ncn2C1OC(CO)C(O)C1O (stereo not given) ?
*A* active

*Q* Record lookup: outcome of this test for CC1CCN(C(=O)CCCl)c2ccccc21 (stereo not given) ?
*A* inactive

*Q* Record lookup: outcome of this test for O=C(/C=C(O)/C=C/c1cccc2[nH]ccc12)/C=C/c1cccc2[nH]ccc12 ?
*A* inactive

*Q* Record lookup: outcome of this test for COc1ccc(C2=NN(C(C)=O)C(c3cn(-c4ccccc4)nc3-c3ccc(Cl)cc3)C2)cc1 (stereo not given) ?
*A* inactive

*Q* Record lookup: outcome of this test for NS(=O)(=O)c1ccc(-c2cc(-c3nnc(SCC(=O)Nc4ccc(C(=O)/C=C/c5ccc(Cl)cc5)cc4)n3-c3ccccc3)c3ccccc3n2)cc1 ?
*A* inactive

* * *

Test system: UACC-257 melanoma
Test: NCI-60 one-dose screen, 48 h (100 = growth as untreated, 0 = no growth, -100 = all killed)
Settings: 10 µM unless noted
This is part of a sample that, as a whole, favours compounds with a hit. Of some 83,000 tested, about 20% had one in any assay.
Rule: measured growth below 70% gets condition met; anything equal to or greater than 70% gets condition not met.

INSERT INTO measurements (compound, target_of_assay, class_assignment) VALUES
  ('CCN(CC)c1ccc(/C=N/NC(=O)Cc2ccc(Nc3ccnc(C(F)(F)F)c3)cc2)c(O)c1', 'UACC-257 melanoma', 'condition met'),
  ('Nc1nc(NC(=O)Nc2ccc(C(=O)O)cc2)nn1-c1ccc(S(N)(=O)=O)cc1', 'UACC-257 melanoma', 'condition not met'),
  ('C#Cc1cccc(Nc2nc(C)nc3cc(NC(=O)CCl)ccc23)c1', 'UACC-257 melanoma', 'condition met'),
  ('[2H]C([2H])([2H])Oc1ccc(F)cc1/C=C/C(=O)/C=C(/C=C/c1cc(F)ccc1OC([2H])([2H])[2H])OB(F)F', 'UACC-257 melanoma', 'condition not met');

Could you now consider this next compound?
*Q* # check: growth < 70% for CC(C)N1C(=O)/C(=c2\sc3n(c2=O)C2C(NN=3)N(C)C(=O)N2C)c2ccccc21 (stereo unspecified)
*A* condition met

* * *

Tested on: HT29 colon
Test: NCI-60 one-dose screen, 48 h
Settings: 10 µM unless noted
About 83,000 compounds went through this panel and 20% of them were active in at least one assay; those are over-represented in the sample as a whole. Calls of active or inactive are those of the source. How the source made its calls: active means growth percent below 10; inactive means the rest.
Hi there, use one of these labels in your reply, thanks! class 1 for active, class 0 for inactive

Check out these entries, answers already filled in.
INSERT INTO results (smiles_repr, class_assignment) VALUES
  ('CC(C)(C)c1cc(Cl)c(O)c(CNCCO)c1', 'class 0'),
  ('COc1cccc(C(=O)NNc2nc(Cl)nc(Cl)n2)c1', 'class 0');

*Q* Record lookup: outcome of this test for O=C1Nc2ccccc2C1(c1c[nH]c2ccccc12)c1c[nH]c2ccccc12 ?
*A* class 0

*Q* Record lookup: outcome of this test for Cc1cn(-c2cc(NC(=O)c3cncc(C#Cc4c(N)ncc5ccc(F)cc45)c3)cc(C(F)(F)F)c2)cn1 ?
*A* class 1

*Q* Record lookup: outcome of this test for O=C(/C=C/c1cccc(Cl)c1Cl)Nc1ncc(Cc2ccccc2Cl)s1 ?
*A* class 0

*Q* Record lookup: outcome of this test for O=C(CCSc1nnc2n(Cc3ccccc3)c(=O)c3c4c(sc3n12)CCCC4)N1CCN(c2ccccc2)CC1 ?
*A* class 0

*Q* Record lookup: outcome of this test for COC(=O)/C=C1/SC(=Nc2ccc([N+](=O)[O-])cc2)N(CCc2c[nH]c3ccc(O)cc23)C1=O ?
*A* class 0

*Q* Record lookup: outcome of this test for CCN(CC)c1ccc(CNc2cc(C)nc3ccccc23)cc1 ?
*A* class 0

* * *

Test system: SR leukemia
Assay: NCI-60 one-dose screen, 48 h
Conditions: 10 µM unless noted
Protocol: Growth inhibition of the SR human tumor cell line is measured as a screen for anti-cancer activity. Cells are grown in 96 well plates and exposed to the test compound for 48 hours. Compounds are tested at a single concentration, which is 10^-5 M for most compounds. The reported endpoint is percent growth (GI% or GIPRCNT), where numbers from 0 - 100% represent growth inhibition, and numbers from -100% - 0 represent cell death. For example, a value of 40 represents 60% growth inhibition. […]
This is part of a sample that, as a whole, favours compounds with a hit. Of some 83,000 tested, about 20% had one in any assay. Activity calls are given as the source filed them. Rule for the calls: active = growth percent below 10; inactive = the rest.
Hi there, use one of these labels in your reply, thanks! 1 (yes) (active), 0 (no) (inactive)

INSERT INTO assay_data (compound, class_assignment) VALUES
  ('O=C(Nc1ccccc1N1CCCC1=O)c1oc2ccc(F)cc2c1-c1cnn(-c2ccccc2)c1', '0 (no)'),
  ('CCN1C(=O)N(CC)C2C1NN=c1s/c(=C3\C(=O)N(CCC(C)C)c4ccccc43)c(=O)n12 (stereo not drawn)', '0 (no)'),
  ('COc1ccc(C2=CC(c3cc(OC)c(OC)c(OC)c3)n3ncnc3N2)cc1 (stereo not drawn)', '0 (no)'),
  ('CC1C=CC(OC(=O)C(C)(O)CCC(O)(C(=O)OC2CC(O)C(C(C)C)CC2(C)O)C(C)C)(C(C)C)CC1 (stereo not drawn)', '1 (yes)'),
  ('CN(C)CCN1C(=O)c2cccc3c(/C=C/CN4C(=O)c5cccc6cccc(c56)C4=O)ccc(c23)C1=O', '1 (yes)');

*Q* Record lookup: outcome of this test for OCCNCCNC(Cc1ccc(Cl)cc1)c1ccccc1 (stereo not drawn) ?
*A* 0 (no)

*Q* Record lookup: outcome of this test for Cc1nc2c(c(=O)[nH]1)C(c1ccccc1)c1ccc3ccccc3c1O2 (stereo not drawn) ?
*A* 0 (no)

*Q* Record lookup: outcome of this test for N#Cc1c(-c2ccccc2)nc(SCc2nnc(-c3ccc(Cl)cc3)o2)[nH]c1=O ?
*A* 0 (no)
